The reported measurements were obtained from the NIST ThermoML archive (doi:10.1016/j.fluid.2014.12.027).

settings: 298 K; 101.33 kPa; Liquid; Vibrating tube method
Documented mass density across a set of compounds

{"CHEM SMILES": "CCCCCCCCCC", "mass density [kg/m3]": 722.439}
{"CHEM SMILES": "Cc1ccccc1", "mass density [kg/m3]": 857.606}
{"CHEM SMILES": "OCCOCCO", "mass density [kg/m3]": 1109.16}
{"CHEM SMILES": "OCCOCCOCCO", "mass density [kg/m3]": 1116.05}
